All figures here come from a melting point compilation (Tetko et al.; mined from patent text by program, amines drawn as free bases though some values may be those of a salt).

Listing: melting point of selected compounds

Study these solved cases before continuing.
Returns the measured melting point for the input compound. Input: CCOC(=O)C1=C(COCc2nnn(CCN3CCN(C(=O)NC)CC3)n2)NC(C)=C(C(=O)OC)C1c1cccc(Cl)c1Cl (stereo not given)
112 to 114 °C

Next compound: Cc1ccc(-c2ncc3c(n2)CCCCC3)nc1-c1ccccc1
151 to 154 °C

Next compound: CCc1nc2c(-c3cc4c(cc3C)OCC4)ncnc2n1C(C1CC1)C1CC1
147 to 148 °C

Next compound: Cn1c(=O)[nH]c2nc3ccc(OCCCC(=O)O)cc3cc21
286 to 288 °C

Next compound: CCN(CCCCN)c1ccc2c(=O)[nH][nH]c(=O)c2c1
255 to 257 °C

Next compound: COc1ccc2ccc(N3C(=O)c4ccccc4C3CC(CCC(C)C)=NO)nc2n1 (stereo not given)
200 °C

Next compound: CCCOc1ccc(NC(=O)N2CCN(c3ncnc4cc(OC)c(OC)cc34)CC2)cc1
218 to 220 °C

Next compound: Cc1nc(Cc2ccc(N)cc2)sc1C
91 to 92 °C

Next compound: O=C1c2cccc(-c3ccc(C(F)(F)F)cc3)c2CC1Br (stereo not given)
94 to 97 °C

Next compound: COCC(=O)Nc1nc2ccc([N+](=O)[O-])cc2s1
230 to 233 °C

New cases:
Returns the measured melting point for the input compound. Input: CC(C)n1c2c(c3cccc(F)c31)C(=O)NCC2
183 to 184 °C

Next compound: CC(=O)CCC(CC=O)C(C)(C)OC(C)=O (stereo not given)
24 °C

Next compound: COc1cccc(-c2[nH]c3ccc(OCc4ccccc4)cc3c2C)c1
107 to 109 °C

Next compound: CCOC(=O)c1ccc(N(C(=O)OCC)C(=O)c2ccc(C(=O)C(C)(C)C)cc2)cc1
84 to 86 °C

Next compound: COC(=O)NCC1=C(n2ccccc2=O)c2cc([N+](=O)[O-])ccc2OC1(C)C
199 °C

Next compound: C#CC12CC3CC(C#C)(C1)CC(C#C)(C3)C2
84 to 86 °C

Next compound: CCCCCCCCCC(=O)C1C(=O)CC(C)OC1=O (stereo not given)
62 to 63 °C

Next compound: CC1(C)CC(OC(=O)CCCCCCCCC(=O)OC2CC(C)(C)N(OC(=O)c3ccccc3)C(C)(C)C2)CC(C)(C)N1OC(=O)c1ccccc1
92 to 100 °C

Next compound: CC(COc1ccccc1)C1CC=C2C3=C(CCC21C)C1(C)CCC(O)C(C)(C)C1CC3 (stereo not given)
134 to 137 °C

Next compound: CC1(c2nc(NC3CC3)nc(N3CCOCC3)n2)CC1
94 to 95 °C
